Provenance of the data: paper PMC4646424

- assay_info: Particle formation by dynamic light scattering
- Format: physicochemical
- experimental_setup: dynamic light scattering, at the concentration detected
DLS particle radius: recorded values
The reply should be a number in nm, with the unit left off.

Cc1ccccc1OCC(=O)Nc1ccc(-c2nc3cc(Cl)ccc3o2)cc1 = 2312

Attention now shifts to the item below.
Input: Returns the measured DLS particle radius for the input compound. Input: `Cc1cc(NS(=O)(=O)c2ccc(NC(=O)COc3c(C)cc(Br)cc3C)cc2)no1`
Output: 49

* * *

- study_system: AmpC β-lactamase (Escherichia coli, UniProt P00811)
- Sequence (P00811 20-377): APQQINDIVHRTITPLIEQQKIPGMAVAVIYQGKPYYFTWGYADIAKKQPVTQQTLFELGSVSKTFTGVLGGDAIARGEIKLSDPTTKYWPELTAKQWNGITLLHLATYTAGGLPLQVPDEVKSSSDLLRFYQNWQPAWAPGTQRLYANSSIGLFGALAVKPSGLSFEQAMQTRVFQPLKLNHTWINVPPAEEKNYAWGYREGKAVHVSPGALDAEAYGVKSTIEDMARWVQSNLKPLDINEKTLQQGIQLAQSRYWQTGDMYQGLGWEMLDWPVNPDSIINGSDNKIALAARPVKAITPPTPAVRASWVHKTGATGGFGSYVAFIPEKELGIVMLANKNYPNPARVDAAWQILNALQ
- assay_info: AmpC β-lactamase inhibition with and without Triton X-100
- Type: biochemical
- experimental_setup: read-out: AmpC IC50 no Triton; no Triton X-100; 1% DMSO
pIC50: −log10 of the molar value.
Classify as follows. Reported pIC50 greater than or equal to 4: MET. Reported pIC50 below: NOT MET.

Answered examples (2):
Nc1sc2c(c1C(=O)c1ccc(Cl)cc1)CCCC2 = MET
Cc1ccc(-c2noc(CN(C(=O)C(c3ccccc3)c3ccccc3)C(C)C)n2)cc1 = MET

Input: Say whether `Cc1cc(NS(=O)(=O)c2ccc(NC(=O)COc3c(C)cc(Br)cc3C)cc2)no1` shows pIC50 of 4 or more.
Output: NOT MET

Input: Say whether `CCOC(=O)c1c(-c2ccc(C)o2)csc1NC(=O)CSc1ncn[nH]1` shows pIC50 of 4 or more.
Output: MET

Input: Say whether `Cc1ccccc1OCC(=O)Nc1ccc(-c2nc3cc(Cl)ccc3o2)cc1` shows pIC50 of 4 or more.
Output: MET

Input: Say whether `CN(CCC#N)C(=O)c1cc2c(s1)-c1ccccc1SC2` shows pIC50 of 4 or more.
Output: NOT MET

Input: Say whether COc1ccc(OC(C)C(=O)N(C)Cc2nc(-c3ccc(OC)cc3)no2)cc1 (centres unmarked) shows pIC50 of 4 or more.
Output: NOT MET

Input: Say whether C=CCOC(=O)c1[nH]c2c(c1C)C(=O)CC(c1ccco1)C2 (centres unmarked) shows pIC50 of 4 or more.
Output: MET

* * *

- study_system: AmpC β-lactamase (Escherichia coli)
- assay_info: AmpC β-lactamase inhibition with and without Triton X-100
- Type: biochemical
- experimental_setup: read-out: AmpC IC50 plus Triton; plus 0.01% Triton X-100; 1% DMSO
pIC50: −log10 of the molar value.
pIC50: recorded values

Input: Returns the measured pIC50 for the input molecule. Input: Cc1ccc(-c2noc(CN(C(=O)C(c3ccccc3)c3ccccc3)C(C)C)n2)cc1 [CHEMBL1304694]
Output: < 4.00

* * *

- assay_info: Particle formation by dynamic light scattering
- Assay type: physicochemical
- experimental_setup: dynamic light scattering
metric: DLS detected (concentration at which particles were detected) (µM)
The reply should be a number in µM, with the unit left off.

Some solved cases for reference:
Cc1ccccc1OCC(=O)Nc1ccc(-c2nc3cc(Cl)ccc3o2)cc1 = 4
CN(CCC#N)C(=O)c1cc2c(s1)-c1ccccc1SC2 = 100
Cc1cc(NS(=O)(=O)c2ccc(NC(=O)COc3c(C)cc(Br)cc3C)cc2)no1 = 100

Input: Returns the measured DLS detected (concentration at which particles were detected) for the input compound. Input: COc1ccc(OC(C)C(=O)N(C)Cc2nc(-c3ccc(OC)cc3)no2)cc1 (centres unmarked)
Output: 100

Input: Returns the measured DLS detected (concentration at which particles were detected) for the input compound. Input: C=CCOC(=O)c1[nH]c2c(c1C)C(=O)CC(c1ccco1)C2 (centres unmarked)
Output: 10
